Sourced from patent US11999727B2

- Tested on: HAP1 MTAP-deleted cell line
- TEST SUMMARY: SDMA in-cell western assay, HAP1 MTAP-deleted
- Assay type: cell-based
- EXPERIMENTAL SETUP: Homo sapiens, HAP1, SDMA in-cell western, HAP1 MTAP-deleted; read-out: HAP 1 MTAP deleted IC50
ENDPOINT: IC50

Take a look at these entries with their results.
Query :: Which IC50 is reported for this compound? Cc1cc(NC(=O)C(=O)N2CCCCC2c2cccnc2)cnc1N (centres unmarked)
Result :: > 1000 nM

Query :: Which IC50 is reported for this compound? Cc1nc2cc([C@H]3CC[C@H](C)CN3C(=O)C(=O)Nc3cnc(N)c(C4CC4)c3)ccc2s1 (single isomer, unassigned)
Result :: < 100 nM

Query :: Which IC50 is reported for this compound? Cc1cc(NC(=O)C(=O)N2C[C@@H](C)CC[C@@H]2c2ccc3sc(C(F)(F)F)nc3c2)cnc1N (single isomer, unassigned)
Result :: < 100 nM

Query :: Which IC50 is reported for this compound? Cc1cc([C@@H]2CC[C@@H](C)CN2C(=O)C(=O)Nc2cnc(N)c(C)c2)ccn1 (single isomer, unassigned)
Result :: < 100 nM

Continuing:
Query :: Which IC50 is reported for this compound? Cc1cc(NC(=O)C(=O)N2C[C@H](C)CC[C@H]2c2ccc(NC3COC3)cc2)cnc1N (racemic)
Result :: < 100 nM

Query :: Which IC50 is reported for this compound? Cc1cc([C@@H]2CC[C@@H](C)CN2C(=O)C(=O)Nc2cnc(N)c(C)c2)ccc1O (single isomer, unassigned)
Result :: < 100 nM

Query :: Which IC50 is reported for this compound? Cc1csc(C2CCCCN2C(=O)C(=O)Nc2cnc(N)c(C)c2)n1 (centres unmarked)
Result :: 100 to 1000 nM

Query :: Which IC50 is reported for this compound? Cc1cncc(NC(=O)C(=O)N2C[C@@H](C)CC[C@@H]2c2cccc(C)c2)c1 (single isomer, unassigned)
Result :: > 1000 nM

Query :: Which IC50 is reported for this compound? CC[C@H]1CC[C@H](c2ccccc2)N(C(=O)C(=O)Nc2cncc(C(N)=O)c2)C1 (single isomer, unassigned)
Result :: < 100 nM

Query :: Which IC50 is reported for this compound? CCc1cc(NC(=O)C(=O)N2C[C@H](C)CC[C@H]2c2ccc(NC(C)=O)nc2)cnc1N (single isomer, unassigned)
Result :: > 1000 nM

Query :: Which IC50 is reported for this compound? Cc1cc(NC(=O)C(=O)N2C[C@@H](C)CC[C@@H]2c2ccc3sc(CCN4CCOCC4)nc3c2)cnc1N
Result :: < 100 nM

Query :: Which IC50 is reported for this compound? CCc1cc(NC(=O)C(=O)N2C[C@H](C)CC[C@H]2c2ccc3sc(CCOC)nc3c2)cnc1N (single isomer, unassigned)
Result :: > 1000 nM

Query :: Which IC50 is reported for this compound? O=Cc1cncc(NC(=O)C(=O)N2CCCCC2c2ccccc2)c1 (centres unmarked)
Result :: > 1000 nM

Query :: Which IC50 is reported for this compound? Cc1ccc2cc([C@@H]3CC[C@@H](C)CN3C(=O)C(=O)Nc3cncc(C(N)=O)c3)ccc2n1 (racemic)
Result :: 100 to 1000 nM

###

- Tested on: HAP1 MTAP-intact cell line
- TEST SUMMARY: SDMA in-cell western assay, HAP1 MTAP-intact
- Format: cell-based
- EXPERIMENTAL SETUP: Homo sapiens, HAP1, SDMA in-cell western, HAP1 MTAP-intact; read-out: MTAP HAP1 intact IC50
ENDPOINT: IC50

Take a look at these entries with their results.
Query :: Which IC50 is reported for this molecule? C[C@H]1CC[C@H]([C@H]2CC[C@@H](O)CC2)N(C(=O)C(=O)Nc2cncc(C(N)=O)c2)C1 (single isomer, unassigned)
Result :: > 1000 nM

Query :: Which IC50 is reported for this molecule? Cc1ccc([C@@H]2CC[C@@H](C)CN2C(=O)C(=O)Nc2cncc(C(N)=O)c2)cc1O (racemic)
Result :: > 1000 nM

Continuing:
Query :: Which IC50 is reported for this molecule? Cc1cc(NC(=O)C(=O)N2C[C@@H](C)CC[C@H]2C23CC(C(N)=O)(C2)C3)cnc1N (single isomer, unassigned)
Result :: > 1000 nM

Query :: Which IC50 is reported for this molecule? Cc1ccc([C@@H]2CC[C@H](C)CN2C(=O)C(=O)Nc2cncc(C(N)=O)c2)nc1 (racemic)
Result :: > 1000 nM

Query :: Which IC50 is reported for this molecule? COc1ncc(NC(=O)C(=O)N2C[C@@H](C)CC[C@@H]2c2ccc(C(N)=O)s2)cc1C(N)=O (single isomer, unassigned)
Result :: > 1000 nM

###

Reported pIC50 is given for each of the following compounds.
- MEASUREMENT TARGET: PRMT5 (Homo sapiens)
- Construct: purchased Viva (custom protein)
- TEST SUMMARY: PRMT5 biochemical IC50 assay with MTA as cofactor
- EXPERIMENTAL SETUP: PRMT5, MTA as cofactor; read-out: MTA IC50
pIC50: −log10 of the molar value.

Take a look at these entries with their results.
Query :: Entry C[C@@H]1CC[C@@H](c2ccc(F)nc2)N(C(=O)C(=O)Nc2cncc(C(N)=O)c2)C1 (racemic) , system PRMT5 (Homo sapiens): what pIC50 was measured?
Result :: > 7.30

Query :: Entry Cc1cncc(NC(=O)C(=O)N2C[C@H](C)CC[C@H]2c2ccc(O)cc2)c1 (racemic) , system PRMT5 (Homo sapiens): what pIC50 was measured?
Result :: 6.30 to 7.30

Query :: Entry COc1cccc([C@@H]2CC[C@@H](C)CN2C(=O)C(=O)Nc2cncc(C(N)=O)c2)c1 (racemic) , system PRMT5 (Homo sapiens): what pIC50 was measured?
Result :: > 7.30

Continuing:
Query :: Entry CCc1cc(NC(=O)C(=O)N2C[C@@H](C)CC[C@@H]2c2cccc(OC[C@@H](C)N(C)C)c2)cnc1N , system PRMT5 (Homo sapiens): what pIC50 was measured?
Result :: > 7.30

###

Reported IC50 is given for each of the following compounds.
- MEASUREMENT TARGET: PRMT5 (Homo sapiens, UniProt O14744)
- Construct: purchased Viva (custom protein)
- Sequence (O14744 whole entry): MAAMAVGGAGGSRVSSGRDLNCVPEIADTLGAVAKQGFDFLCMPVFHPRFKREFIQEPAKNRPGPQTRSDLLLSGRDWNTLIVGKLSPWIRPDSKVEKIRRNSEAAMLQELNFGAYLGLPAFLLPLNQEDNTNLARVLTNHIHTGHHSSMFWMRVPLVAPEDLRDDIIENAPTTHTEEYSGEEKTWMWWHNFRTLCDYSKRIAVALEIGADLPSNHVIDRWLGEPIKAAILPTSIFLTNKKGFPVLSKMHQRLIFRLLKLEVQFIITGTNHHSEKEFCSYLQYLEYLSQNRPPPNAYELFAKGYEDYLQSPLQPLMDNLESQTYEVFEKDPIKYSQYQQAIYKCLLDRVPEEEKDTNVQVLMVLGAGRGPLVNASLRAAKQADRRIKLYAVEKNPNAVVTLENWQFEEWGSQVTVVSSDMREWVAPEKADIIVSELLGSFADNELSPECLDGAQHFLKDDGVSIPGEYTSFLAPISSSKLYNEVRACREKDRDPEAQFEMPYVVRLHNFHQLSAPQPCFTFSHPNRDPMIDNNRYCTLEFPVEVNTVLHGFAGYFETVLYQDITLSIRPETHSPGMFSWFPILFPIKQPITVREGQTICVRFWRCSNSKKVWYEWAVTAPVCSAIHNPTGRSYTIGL
- Sequence (Q9BQA1 whole entry partner): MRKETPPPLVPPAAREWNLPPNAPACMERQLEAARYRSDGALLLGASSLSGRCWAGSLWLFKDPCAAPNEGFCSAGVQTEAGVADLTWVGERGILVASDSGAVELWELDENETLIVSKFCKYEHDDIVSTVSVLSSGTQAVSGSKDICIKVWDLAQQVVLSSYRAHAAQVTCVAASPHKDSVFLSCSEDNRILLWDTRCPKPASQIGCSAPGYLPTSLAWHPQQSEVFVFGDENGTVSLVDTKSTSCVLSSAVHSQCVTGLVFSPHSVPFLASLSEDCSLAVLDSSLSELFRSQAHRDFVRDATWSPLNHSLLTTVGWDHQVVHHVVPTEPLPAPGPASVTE
- TEST SUMMARY: PRMT5 biochemical IC50 assay with MTA as cofactor
- EXPERIMENTAL SETUP: PRMT5, MTA as cofactor; read-out: MTA IC50

Take a look at these entries with their results.
Query :: Which IC50 is reported for this compound? CC1CC(C)C(c2ccccc2)N(C(=O)C(=O)Nc2cncc(C(N)=O)c2)C1 (stereo not shown)
Result :: > 500 nM

Query :: Which IC50 is reported for this compound? CNS(=O)(=O)c1ccc([C@@H]2CC[C@@H](C)CN2C(=O)C(=O)Nc2cnc(N)c(C)c2)cc1 (racemic)
Result :: < 50 nM

Query :: Which IC50 is reported for this compound? C[C@@H]1CC[C@@H](c2cc(F)cc(Cl)c2)N(C(=O)C(=O)Nc2cncc(C(N)=O)c2)C1 (single isomer, unassigned)
Result :: > 500 nM

Query :: Which IC50 is reported for this compound? CC[C@H]1CC[C@H](c2ccccc2)N(C(=O)C(=O)Nc2cncc(C(N)=O)c2)C1 (single isomer, unassigned)
Result :: < 50 nM

Query :: Which IC50 is reported for this compound? COc1ncc(NC(=O)C(=O)N2C[C@@H](C)CC[C@@H]2c2ccc(CCN(C)C)c(Cl)c2)cc1C(N)=O
Result :: < 50 nM

Continuing:
Query :: Which IC50 is reported for this compound? CCc1cc(NC(=O)C(=O)N2C[C@@H](C)CC[C@@H]2c2ccc3sc(C(C)(C)N(C)C)nc3c2)cnc1N
Result :: < 50 nM

Query :: Which IC50 is reported for this compound? C[C@@H]1CC[C@@H]([C@H]2CC[C@@H](O)CC2)N(C(=O)C(=O)Nc2cncc(C(N)=O)c2)C1 (single isomer, unassigned)
Result :: 50 to 500 nM

Query :: Which IC50 is reported for this compound? C[C@H]1CC[C@H](c2csc3ccccc23)N(C(=O)C(=O)Nc2cncc(C(N)=O)c2)C1 (single isomer, unassigned)
Result :: > 500 nM

Query :: Which IC50 is reported for this compound? NC(=O)c1cncc(NC(=O)C(=O)N2CCCCC2C2CCCC2O)c1 (stereo not shown)
Result :: 50 to 500 nM

Query :: Which IC50 is reported for this compound? Cc1ncc(NC(=O)C(=O)N2C[C@@H](C)CC[C@@H]2c2ccc3sc(C4CCN(C)CC4)nc3c2)cc1C(F)(F)F
Result :: < 50 nM

###

- MEASUREMENT TARGET: PRMT5 (Homo sapiens)
- Construct: purchased Viva (custom protein)
- TEST SUMMARY: PRMT5 biochemical IC50 assay with no cofactor
- EXPERIMENTAL SETUP: PRMT5, no cofactor; read-out: No Cofactor/rel IC50
pIC50: −log10 of the molar value.
ENDPOINT: pIC50

Query :: Which pIC50 is reported for this compound? C[C@H]1CC[C@H](c2ccc3c(c2)OCCN3)N(C(=O)C(=O)Nc2cncc(C(N)=O)c2)C1 (single isomer, unassigned) [Compound 598]
Result :: 6.30 to 7.30

Query :: Which pIC50 is reported for this compound? CNC(=O)c1ccc([C@H]2CC[C@H](C)CN2C(=O)C(=O)Nc2cnc(OC)c(C(N)=O)c2)s1 (single isomer, unassigned) [Compound 833]
Result :: 6.30 to 7.30

Query :: Which pIC50 is reported for this compound? COc1ncc(NC(=O)C(=O)N2C[C@@H](C)CC[C@@H]2c2ccc3sccc3c2)cc1C(N)=O (single isomer, unassigned) [Compound 618]
Result :: > 7.30
